Target chain: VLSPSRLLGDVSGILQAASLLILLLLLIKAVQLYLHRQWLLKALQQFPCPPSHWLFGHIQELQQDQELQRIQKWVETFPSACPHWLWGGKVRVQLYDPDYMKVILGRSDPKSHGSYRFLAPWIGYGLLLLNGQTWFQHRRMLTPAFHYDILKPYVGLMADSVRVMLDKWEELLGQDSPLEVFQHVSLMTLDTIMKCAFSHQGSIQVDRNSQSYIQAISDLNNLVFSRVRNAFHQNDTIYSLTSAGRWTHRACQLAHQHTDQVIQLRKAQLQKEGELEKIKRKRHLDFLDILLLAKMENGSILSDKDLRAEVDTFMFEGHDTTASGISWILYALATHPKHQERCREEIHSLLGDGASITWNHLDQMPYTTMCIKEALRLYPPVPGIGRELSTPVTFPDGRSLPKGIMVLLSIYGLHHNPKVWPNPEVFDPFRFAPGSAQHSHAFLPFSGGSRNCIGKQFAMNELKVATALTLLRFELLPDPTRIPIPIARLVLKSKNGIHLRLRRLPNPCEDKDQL
QUANTITY KIND: IC50 (nM)

Would you please look over these solved cases?
CS(=O)(=O)c1cccc(COc2ccc(-c3ccn[nH]3)nc2)c1 | 63
Cc1ccc(COc2ccc(-c3ccn[nH]3)nc2)cc1 [Reference Example 54-2] | 560
CC(C)OC(=O)N1CC(S(=O)(=O)N2CCC[C@H](COc3ccc(-c4ccn[nH]4)nc3)C2)C1 | 82
O=C(CCN1CCCS1(=O)=O)N1CCC[C@@H](COc2ccc(-c3ccn[nH]3)nc2)C1 | 1800

[A] CC(=O)N1CCC(F)(COc2ccc(-c3ccn[nH]3)nc2)CC1
[B] CC(=O)N1CC[C@H](CCOc2ccc(-c3ccn[nH]3)nc2)C1
Q: Between the entries labelled A and B , which has a larger IC50 value on record? Answer = label.
Ans: B
(B: 2000 nM, A: 350 nM)

[A] CC(C)NC(=O)N1CCC(COc2ccc(-c3ccn[nH]3)nc2)CC1
[B] CC(=O)N1CCC(CCOc2ccc(-c3ccn[nH]3)nc2)CC1
[C] CC(C)(O)CC(=O)NCCC(=O)N1CCC[C@@H](COc2ccc(-c3ccn[nH]3)nc2)C1
[D] FC(F)(F)c1cc(COc2ccc(-c3ccn[nH]3)nc2)cc(C(F)(F)F)c1
[E] C1=C(c2cccc(COc3ccc(-c4ccn[nH]4)nc3)c2)CCC1 [Reference Example 53-1]
Q: Hi! Can you put these in order of IC50, lowest number first? Submit the labels in the order that the ranking request calls for.
Ans: D, E, C, B, A

[a] CC(=O)N[C@H]1CC[C@@H](COc2ccc(-c3ccn[nH]3)nc2)CC1
[b] CN(C(=O)N1CCC(COc2ccc(-c3ccn[nH]3)nc2)CC1)C1CC1
Q: Which numeric IC50 is bigger, that of a or that of b ? State the label of the item chosen.
Ans: b
(b: 930 nM, a: 410 nM)

----------
Target: human CYP4A11 (Homo sapiens)
Sequence (Q02928 5-519): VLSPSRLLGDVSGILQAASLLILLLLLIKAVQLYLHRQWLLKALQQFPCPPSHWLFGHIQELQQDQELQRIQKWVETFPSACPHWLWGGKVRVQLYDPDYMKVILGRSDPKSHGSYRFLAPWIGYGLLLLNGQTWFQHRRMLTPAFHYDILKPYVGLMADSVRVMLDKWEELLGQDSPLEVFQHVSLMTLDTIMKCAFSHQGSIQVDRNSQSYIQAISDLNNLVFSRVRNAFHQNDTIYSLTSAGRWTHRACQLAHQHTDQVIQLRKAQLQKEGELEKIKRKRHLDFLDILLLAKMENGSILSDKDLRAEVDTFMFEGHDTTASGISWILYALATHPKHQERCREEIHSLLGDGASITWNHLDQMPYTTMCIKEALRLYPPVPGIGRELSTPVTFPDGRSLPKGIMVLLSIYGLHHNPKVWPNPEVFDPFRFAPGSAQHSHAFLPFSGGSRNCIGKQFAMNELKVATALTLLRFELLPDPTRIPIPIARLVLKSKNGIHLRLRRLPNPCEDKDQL
QUANTITY KIND: IC50 (nM)

Answered cases to consult:
O=C([C@H]1CC[C@@H](O)CC1)N1CCC(COc2ccc(-c3ccn[nH]3)nc2)CC1 [Example 2-7] | 5300
CC(=O)N1CC2(CC(COc3ccc(-c4ccn[nH]4)nc3)C2)C1 [Example 14-4] | 4200
CC(=O)N1CCC(COc2ccc(-c3cn[nH]c3)nc2)CC1 [Example 39-1] | 220
CC(C)S(=O)(=O)N1CC[C@H](COc2ccc(-c3ccn[nH]3)nc2)C1 [Example 10-15] | 210
CC(=O)N[C@H]1CC[C@H](COc2ccc(-c3ccn[nH]3)nc2)CC1 [Example 14-5] | 610

[1] c1cc(-c2ccc(OCc3ccc4nccnc4c3)cn2)[nH]n1 [Example 25-15]
[2] CC1(C)Cc2cc(COc3ccc(-c4ccn[nH]4)nc3)cc(Cl)c2O1 [Example 25-13]
[3] Fc1ccc(COc2ccc(-c3ccn[nH]3)nc2)cc1C(F)(F)F [54-8]
[4] O=S(=O)(C1CC1)N1CCC[C@@H](COc2cnc(-c3ccn[nH]3)c(F)c2)C1 [Example 10-17]
[5] CC(=O)N1CCN(CCOc2ccc(-c3ccn[nH]3)cc2)CC1 [Compound A, reference compound]
Q: Hi! Can you put these in order of IC50, lowest number first? State the ranking by listing the labels in the requested order.
Ans: 4, 2, 3, 1, 5
(4: 19 nM, 2: 36 nM, 3: 1100 nM, 1: 2700 nM, 5: 11000 nM)

----------
Target sequence: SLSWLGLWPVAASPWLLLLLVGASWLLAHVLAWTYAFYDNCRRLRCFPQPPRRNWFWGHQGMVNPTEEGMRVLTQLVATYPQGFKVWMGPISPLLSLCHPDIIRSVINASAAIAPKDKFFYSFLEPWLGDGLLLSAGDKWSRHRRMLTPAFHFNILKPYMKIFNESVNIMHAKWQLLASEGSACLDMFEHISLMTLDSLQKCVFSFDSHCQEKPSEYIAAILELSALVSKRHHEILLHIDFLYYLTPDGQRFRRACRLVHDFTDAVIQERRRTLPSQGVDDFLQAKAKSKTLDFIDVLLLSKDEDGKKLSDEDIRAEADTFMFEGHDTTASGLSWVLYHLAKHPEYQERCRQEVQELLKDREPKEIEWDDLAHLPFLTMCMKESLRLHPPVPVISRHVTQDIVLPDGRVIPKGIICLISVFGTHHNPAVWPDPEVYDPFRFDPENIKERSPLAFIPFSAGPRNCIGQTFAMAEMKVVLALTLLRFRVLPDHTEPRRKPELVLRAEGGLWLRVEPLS
QUANTITY KIND: IC50 (nM)

Some entries whose results are on file:
c1cc(-c2ccc(OCC3CCOCC3)cn2)[nH]n1 [Example 13-15] | 270
CC(=O)N1CCC(COc2ccc(-c3ccn[nH]3)nc2C)CC1 [Example 24-4] | 590
CN(CC(=O)N1CCC[C@@H](COc2ccc(-c3ccn[nH]3)nc2)C1)C(=O)OC(C)(C)C [Example 3-40] | 370

[1] CC(=O)N1CCC(C(=O)N2CCC[C@@H](COc3ccc(-c4ccn[nH]4)nc3)C2)CC1 [Example 3-24]
[2] CS(=O)(=O)N1CCC(CCOc2ccc(-c3ccn[nH]3)nc2)CC1 [Example 10-22]
[3] CC(=O)N1CCC(COc2ccc(-n3cncn3)nc2)CC1 [Example 45-3]
[4] CC(=O)N1CCCC[C@@H]1CCOc1ccc(-c2ccn[nH]2)nc1 [Example 13-5]
[5] CC(=O)N1CC[C@H](COc2ccc(-c3ccn[nH]3)nc2)C1 [Example 20-2]
Q: Put the items in sequence by IC50, from largest down. Thanks in advance for listing the labels in the requested order.
Ans: 4, 2, 1, 5, 3
(4: 5000 nM, 2: 960 nM, 1: 490 nM, 5: 240 nM, 3: 26 nM)

----------
pIC50: −log10 of the molar value.
// endpoint pIC50 / system UniProt Q02928
QUANTITY KIND: pIC50

CC(=O)N1CCC(COc2ccc(-c3ccn[nH]3)nc2)CC1 | 6.85
Clc1cccc(COc2ccc(-c3ccn[nH]3)nc2)c1 | 6.89
O=C(Cn1ccccc1=O)N1CCC[C@@H](COc2ccc(-c3ccn[nH]3)nc2)C1 | 5.62

[a] CC1CCCC(C)N1C(=O)c1cccc(COc2ccc(-c3ccn[nH]3)nc2)c1 (centres unmarked)
[b] CS(=O)(=O)CC(=O)N1CCC[C@@H](COc2ccc(-c3ccn[nH]3)nc2)C1
Q: Rank a against b by their pIC50 values and give the higher one. Bench note: the answer is the label of the chosen record.
Ans: b

----------
Sequence of the target: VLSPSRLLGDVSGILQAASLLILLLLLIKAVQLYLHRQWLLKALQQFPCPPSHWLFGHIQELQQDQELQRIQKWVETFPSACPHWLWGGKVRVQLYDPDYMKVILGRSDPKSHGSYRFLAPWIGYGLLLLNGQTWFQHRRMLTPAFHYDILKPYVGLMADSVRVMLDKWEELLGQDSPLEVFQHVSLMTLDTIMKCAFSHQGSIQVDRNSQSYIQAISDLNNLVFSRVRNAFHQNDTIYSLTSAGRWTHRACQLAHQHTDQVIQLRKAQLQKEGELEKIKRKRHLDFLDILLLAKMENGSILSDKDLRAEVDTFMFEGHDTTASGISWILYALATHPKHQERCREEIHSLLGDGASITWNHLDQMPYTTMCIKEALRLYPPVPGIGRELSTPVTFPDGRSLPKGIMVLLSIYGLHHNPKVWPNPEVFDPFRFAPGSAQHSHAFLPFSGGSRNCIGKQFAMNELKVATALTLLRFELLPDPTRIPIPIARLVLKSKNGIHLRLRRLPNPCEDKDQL
pIC50: −log10 of the molar value.
QUANTITY KIND: pIC50

CC(C)CC(=O)N1CC(S(=O)(=O)N2CCC[C@H](COc3ccc(-c4ccn[nH]4)nc3)C2)C1 | 6.72
COCCOC(=O)NCCC(=O)N1CCC[C@@H](COc2ccc(-c3ccn[nH]3)nc2)C1 | 6.51
CC(C)NC(=O)N1CCC(CCOc2ccc(-c3ccn[nH]3)nc2)CC1 | 6.44
CS(=O)(=O)N1CCC[C@@H](COc2ccc(-c3ccn[nH]3)nc2)C1 | 7.42

[A] O=C(N1CCC[C@@H](COc2ccc(-c3ccn[nH]3)nc2)C1)C(F)(F)C1(O)CCCC1
[B] CC(=O)N1CCC(C)(COc2ccc(-c3ccn[nH]3)nc2)CC1
[C] CC(=O)Nc1cc(COc2ccc(-c3ccn[nH]3)nc2)ccn1
Q: Arrange these molecules by their pIC50, starting with the largest number. Put the labels in the order asked and list them.
Ans: A, B, C
(A: 6.72, B: 6.19, C: 5.21)

[A] O=C(N1CCC1)N1CCC(COc2ccc(-c3ccn[nH]3)nc2)CC1
[B] Cc1cccc(COc2ccc(-c3ccn[nH]3)nc2)c1 [Reference Example 54-1]
[C] CS(=O)(=O)c1cccc(COc2ccc(-n3cncn3)nc2)c1
[D] O=C(N1CCC(COc2ccc(-c3ccn[nH]3)nc2)CC1)N1CCCS1(=O)=O
[E] CN(C)S(=O)(=O)N1CC[C@H](COc2ccc(-c3ccn[nH]3)nc2)C1
Q: Rank the 5 molecules: largest pIC50 first, smallest last. The labels, placed in the requested order, form the answer.
Ans: C, E, B, A, D
(C: 7.51, E: 6.80, B: 6.47, A: 6.10, D: 5.70)

[P] CC(C)(O)CC(=O)N1CCC[C@@H](COc2ccc(-c3ccn[nH]3)nc2)C1
[Q] COCCC(=O)N1CCC(COc2ccc(-c3ccn[nH]3)nc2)CC1
Q: // which entry has the larger pIC50 value, P or Q ? Please respond with the label that marks your chosen entry.
Ans: P

[I] CC(=O)N1CC(CCCOc2ccc(-c3ccn[nH]3)nc2)C1
[II] O=C(CC1CC1)N1CCC(COc2ccc(-c3ccn[nH]3)nc2)CC1
[III] CS(=O)(=O)c1ccccc1CCOc1ccc(-c2ccn[nH]2)nc1
[IV] CC(=O)N1C[C@@H]2[C@@H](COc3ccc(-c4ccn[nH]4)nc3)[C@@H]2C1
[V] O=C(C1CC1)N1CCC(COc2ccc(-c3ccn[nH]3)nc2)CC1
Q: Your job: order these 5 records by pIC50, ascending. List labels; respect the requested ordering.
Ans: I, IV, II, V, III
(I: 5.34, IV: 5.55, II: 6.03, V: 6.28, III: 7.11)
